Could you please report measured GI50 for the items listed next?
System: XF498
Experiment: NCI tumour cell line growth inhibition, 48 h
Activity calls are given as the source filed them. Rule as the data show it: active = GI50 up to about 1.1 µM and inactive = higher.

**Q:** Given `COC(=O)c1cccc2cccc(C(=O)Nc3ccc(C)cc3C)c12` , state its recorded GI50.
**A:** 54.6 µM (inactive)

**Q:** Given `Cn1c(=O)c(C(=O)NC(=O)NCCCCCOC(=O)CCCCCCCCCCC(=O)OCCCCCNC(=O)NC(=O)c2cn(Cc3ccccc3)c(=O)n(C)c2=O)cn(Cc2ccccc2)c1=O` , state its recorded GI50.
**A:** > 100 µM (inactive)

**Q:** Given O=C1C2C(C(=O)N1O)N(Cc1ccccc1)C(=O)N2Cc1ccccc1 (centres undefined) , state its recorded GI50.
**A:** > 100 µM (inactive)

**Q:** Given O=C(/C=C1/Nc2ccc([N+](=O)[O-])cc2NC1O)c1cccc([N+](=O)[O-])c1 (centres undefined) , state its recorded GI50.
**A:** > 100 µM (inactive)

---

System: KM12
Assay: NCI tumour cell line growth inhibition, 48 h
Active and inactive are the calls of the source. Cut-off read from the data, not from the text of the source: active = GI50 up to about 1.1 µM and inactive = higher.
The categories you may choose from are label 1 (active), label 0 (inactive)

**Q:** Which outcome did this test record for the compound `O=C(/C=C/c1cc(Cl)cc(Cl)c1O)c1cccc(O)c1` ?
**A:** label 0

**Q:** Which outcome did this test record for the compound `O=S(=O)(O)c1ccc(/N=N\c2c(O)ccc3cc(Br)ccc23)cc1` ?
**A:** label 0

**Q:** Which outcome did this test record for the compound CC1(Br)CC2OC3(Br)C=CC(C)(O)C2(CC1=O)C3(C)C (configuration not stated) ?
**A:** label 0

**Q:** Which outcome did this test record for the compound `COCOc1cc(OCOC)cc(C(=O)Oc2ccccc2)c1` ?
**A:** label 0

**Q:** Which outcome did this test record for the compound `CO/N=C(\C)c1ccc(Nc2nc3ccccc3c3occc23)cc1` ?
**A:** label 0

**Q:** Which outcome did this test record for the compound `C/C(=N\NC(=S)N1CCOCC1)c1nc2cccnc2[nH]1` ?
**A:** label 0

**Q:** Which outcome did this test record for the compound `CCCCCCCCCCCC(=O)OC[C@@H](C[As](=O)(O)O)OC(=O)CCCCCCCCCCC` ?
**A:** label 0

**Q:** Which outcome did this test record for the compound `Cc1ccc(S(=O)(=O)NC(=O)NCC(N)=O)cc1` ?
**A:** label 0

**Q:** Which outcome did this test record for the compound `CC(=O)Nc1ccc(-c2nnc(SCC(=O)Nc3ccccc3C)o2)cc1` ?
**A:** label 0

**Q:** Which outcome did this test record for the compound `C#CN1C(=O)c2c(c(-c3ccccc3)c(-c3ccc(Oc4ccc(-c5c(-c6ccccc6)c6c(c(-c7ccccc7)c5-c5ccccc5)C(=O)N(C#C)C6=O)cc4)cc3)c(-c3ccccc3)c2-c2ccccc2)C1=O` ?
**A:** label 0

**Q:** Which outcome did this test record for the compound `CCOC(=O)c1cc(-c2ccc(OC)cc2)c([N+](=O)[O-])[nH]1` ?
**A:** label 0

**Q:** Which outcome did this test record for the compound `Clc1cccc(-c2nnc(-c3nn(-c4ccccc4)c4nc5ccccc5nc34)o2)c1` ?
**A:** label 0

**Q:** Which outcome did this test record for the compound `O=c1c(F)cn2c(=O)n1CCCCCCCn1c(=O)c(F)cn(c1=O)CCCCCCC2` ?
**A:** label 0

**Q:** Which outcome did this test record for the compound COC(=O)C1CCOC(C)N1C(=O)OC(C)(C)C (configuration not stated) ?
**A:** label 0

**Q:** Which outcome did this test record for the compound `ClCCN1CCC2(CC1)SSC1(CCN(CCCl)CC1)S2` ?
**A:** label 0

**Q:** Which outcome did this test record for the compound `Cc1ccc2nc(-n3c(/C=C/c4ccccc4O)nc4ccccc4c3=O)sc2c1` ?
**A:** label 0

**Q:** Which outcome did this test record for the compound `O=C(O)/C(Cc1c[nH]nn1)=N\O` ?
**A:** label 0

**Q:** Which outcome did this test record for the compound `NC(=O)N1N=C2c3ccccc3OC[C@H]2[C@@H]1c1ccccc1` ?
**A:** label 0

**Q:** Which outcome did this test record for the compound CC(=O)OC1CCC2(C)C(=CCC3C2CCC2(C)C3CC3OC4(CCC(C)CN4)C(C)C32)C1 (configuration not stated) ?
**A:** label 0

**Q:** Which outcome did this test record for the compound CC(=O)OCC1=C(C)C[C@H]([C@@H](COC(C)=O)C2CCC3C4C[C@H]5O[C@]56CC=CC(=O)[C@]6(C)C4CC[C@@]32C)OC1=O (some centres not stated) ?
**A:** label 1

**Q:** Which outcome did this test record for the compound C=C(C)C(=O)CC[C@@H](C)[C@H]1[C@@H](OC2OC(CO)C(O)C(O)C2O)C[C@@]2(C)[C@@H]3C[C@H](O)C4C(C)(C)[C@@H](OC5OC(CO)C(O)C(O)C5O)CC[C@@]45C[C@@]35CC[C@]12C (some centres not stated) ?
**A:** label 0

**Q:** Which outcome did this test record for the compound `Cc1ccc(NC(=O)CCc2n[nH]c(=S)o2)cc1` ?
**A:** label 0

**Q:** Which outcome did this test record for the compound `COc1ccc2c(c1)C(=O)c1ccccc1C2` ?
**A:** label 0

**Q:** Which outcome did this test record for the compound `CN(C)c1ccc2nc3c(ccc4ccccc43)[o+]c2c1` ?
**A:** label 0

**Q:** Which outcome did this test record for the compound Cc1ccc(C2(O)CC(c3ccc([N+](=O)[O-])o3)=NN2C(=O)COc2ccc(Cl)cc2)cc1 (configuration not stated) ?
**A:** label 0

**Q:** Which outcome did this test record for the compound O=c1ccn(C2OC(CN(O)CCC3C(CO)OC(n4ccc(=O)[nH]c4=O)C3O)C(O)C2O)c(=O)[nH]1 (configuration not stated) ?
**A:** label 0

**Q:** Which outcome did this test record for the compound `CC(C)NC(=O)OCc1c2c(n(C)c1COC(=O)NC(C)C)-c1cc(Cl)c(Cl)cc1CC2` ?
**A:** label 0

**Q:** Which outcome did this test record for the compound `O=C(c1ccccc1)N1C(=S)NC(=N/c2ccccc2)/C1=N\c1ccccc1` ?
**A:** label 0

**Q:** Which outcome did this test record for the compound `C[C@H](N)C(=O)Nc1ccc(-c2nc3ccccc3s2)cc1Cl` ?
**A:** label 0

**Q:** Which outcome did this test record for the compound `O=c1[nH]c(C23CC4CC(CC(C4)C2)C3)cc2c1c(=O)oc1ccccc12` ?
**A:** label 0

**Q:** Which outcome did this test record for the compound Fc1ccc2nc3n(c2c1)C(c1c(Cl)cccc1Cl)SC3 (configuration not stated) ?
**A:** label 0

**Q:** Which outcome did this test record for the compound O=C1NC(c2cccc(OCc3ccccc3)c2)Nc2ccccc21 (configuration not stated) ?
**A:** label 0
